EXPERIMENTAL_DETAILS: Soil mobility of herbicides, uptake by concentric PDMS rings
Type: physicochemical
MEASUREMENT_CONTEXT: uptake by PDMS ring of 2 cm diameter, 7 days after application, sandy loam soil, moisture content 26.3%
Consider the following molecules and their measured Percentage of totally applied herbicide (%) readings.
The answer is to be given in %; state only the numeric part.

Please review the following examples before continuing.
CC1(C)CON(Cc2ccccc2Cl)C1=O ... 0.36
CCc1cccc(C)c1N(C(=O)CCl)[C@@H](C)COC [S-metalochlor] ... 0.11
CCOCN(C(=O)CCl)c1c(C)cccc1CC ... 0.14
CCCN(CCC)c1c([N+](=O)[O-])cc(C(F)(F)F)cc1[N+](=O)[O-] ... 0.62

The record that follows has no Percentage of totally applied herbicide (%) shown yet.
CCCN(CCC)C(=O)SCC yielded Percentage of totally applied herbicide (%) of 12.70
